Ref: patent US20240270821A1

- MEASUREMENT_TARGET: hGLP-1R (Homo sapiens, UniProt P43220)
- Sequence (P43220 24-463): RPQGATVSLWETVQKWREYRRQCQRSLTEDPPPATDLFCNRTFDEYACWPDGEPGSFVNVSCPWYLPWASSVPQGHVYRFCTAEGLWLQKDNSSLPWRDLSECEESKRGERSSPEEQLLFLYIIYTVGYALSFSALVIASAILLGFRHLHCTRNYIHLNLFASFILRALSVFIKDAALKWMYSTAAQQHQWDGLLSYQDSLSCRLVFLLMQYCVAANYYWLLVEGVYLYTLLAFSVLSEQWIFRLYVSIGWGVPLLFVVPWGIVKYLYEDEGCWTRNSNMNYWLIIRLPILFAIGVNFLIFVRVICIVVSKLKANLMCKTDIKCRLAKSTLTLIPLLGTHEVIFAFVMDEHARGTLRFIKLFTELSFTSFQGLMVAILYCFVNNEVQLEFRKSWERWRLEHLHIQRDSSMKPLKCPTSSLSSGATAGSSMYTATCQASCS
- METHOD_DESCRIPTION: Functional cAMP activity in the presence of 1% HSA
- Format: cell-based
- CONDITION_SUMMARY: read-out: cAMP Rel EC50, hGLP-1R
Starred links: 1 amine or outer side, 2 acyl side, 3 side chain; linkers in the order of their positions; H or OH if unused. Non-standard residues stand in square brackets, D forms with d. Groups on a side chain read outwards from the residue. *: point of attachment. C20 diacid = O=C(O)CCCCCCCCCCCCCCCCCCC(=O)*; C18 diacid = O=C(O)CCCCCCCCCCCCCCCCC(=O)*; αMePhe(2-F) = C[C@](N)(Cc1ccccc1F)C(=O)O; γGlu = O=C(O)[C@H](CCC(=O)[*:2])N[*:1]; 4Pal = N[C@@H](Cc1ccncc1)C(=O)O; αMeL = CC(C)C[C@](C)(N)C(=O)O; αMeS = C[C@](N)(CO)C(=O)O; Orn = NCCC[C@H](N)C(=O)O; AEEA = NCCOCCOCC(=O)O; Aib = CC(C)(N)C(=O)O
ENDPOINT_LABEL: pEC50
// pEC50: -log10(molar conc.)

SUBSTANCE	MEASUREMENT_TARGET	pEC50
H-Y[Aib]QGTFTSDFS[Orn][αMeL]LDKK([AEEA-γGlu-C18 diacid])AQ[Aib]AFIEWLLEGGTSSGAPPPSGT-NH2 [Example 177]	hGLP-1R (Homo sapiens, UniProt P43220)	6.32

Req: Entry H-Y[Aib]QGTFTSDFSK[αMeL]LDKK([AEEA-γGlu-C20 diacid])AQ[Aib]AFIEYLLAGGPSSGAPPPGGS-NH2 [Example 16] : reported pEC50 = ?
Resp: 6.55

Req: Thanks! And H-Y[Aib]QGT[αMePhe(2-F)]TSD[4Pal][αMeS]I[αMeL]LD[Orn]K([γGlu-γGlu-C18 diacid])AQ[Aib][Orn]FI[dE]YLIEGGPSSGEPPPSGTEEE-NH2 [Example 540] ?
Resp: 7.42
